Kd by entry:
# target under test: T1, human soluble ULBP6 haplotype 02 (hULBP6_02) (human, UniProt Q5VY80 26-218)
# T1 construct: also called sULBP6_02
# T1 chain: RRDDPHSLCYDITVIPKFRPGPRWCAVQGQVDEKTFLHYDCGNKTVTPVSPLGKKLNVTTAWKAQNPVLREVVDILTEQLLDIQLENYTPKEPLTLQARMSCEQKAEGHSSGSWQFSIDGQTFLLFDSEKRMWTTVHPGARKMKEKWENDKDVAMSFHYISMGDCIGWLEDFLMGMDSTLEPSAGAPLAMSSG
# protocol description: SPR (BIACORE);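 further: soluble human and cynomolgus NKG2D ligands injected as analytes in 3-fold dilution series spanning 0.01 to 50 nM at 37 °C, reference-subtracted sensorgrams fitted to a 1:1 Langmuir model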

binder	Kd / nM
Humanized 1D4 (h1D4) (E-) (antibody, human IgG1, kappa, N297G, V domains shown, hIgG1 with N297G (effector negative)) VH: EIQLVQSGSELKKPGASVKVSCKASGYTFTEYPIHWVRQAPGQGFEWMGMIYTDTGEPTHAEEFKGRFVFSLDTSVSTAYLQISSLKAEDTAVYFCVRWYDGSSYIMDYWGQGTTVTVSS VL: DIQMTQSPSSLSASVGDRVTITCKASQDINSYLSWFQQKPGKSPKTLIYRANRLVDGVPSRFSGSGSGQDYTFTISSLQPEDIATYYCLQYDEFPLTFGGGTKVEIKR	1.06
Humanized 6E1 (h6E1) (E-) (antibody, human IgG1, kappa, N297G, V domains shown, hIgG1 with N297G (effector negative)) VH: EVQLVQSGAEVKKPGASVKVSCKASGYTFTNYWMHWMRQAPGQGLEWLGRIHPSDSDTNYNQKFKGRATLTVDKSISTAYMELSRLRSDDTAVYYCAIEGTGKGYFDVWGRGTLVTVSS VL: DIQMTQSPSSLSASVGDRVTITCKASQDIYSYLSWFQQKPGKSPKTLIYRANRLVDGVPSRFSGSGSGQDFTLTISSLQPEDFATYYCLHYDEFPLTFGGGTKVEIKR	0.68
Humanized 8E11 (h8E11) (E-) (antibody, human IgG1, kappa, N297G, V domains shown, hIgG1 with N297G (effector negative)) VH: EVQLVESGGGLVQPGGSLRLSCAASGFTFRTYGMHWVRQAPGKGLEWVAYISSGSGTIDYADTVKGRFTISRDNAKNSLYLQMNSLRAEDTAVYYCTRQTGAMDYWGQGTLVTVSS VL: EIVLTQSPATLSLSPGERATLSCSASSSVSYMNWYQQKPGQSPRLWIYGISNLASGVPARFSGSGSGTDFTLTISSLEPEDFAVYYCQQRSSHPLTFGGGTKVEIKR	0.28
Humanized 7B3 (h7B3) (E-) (antibody, human IgG1, kappa, N297G, V domains shown, hIgG1 with N297G (effector negative)) VH: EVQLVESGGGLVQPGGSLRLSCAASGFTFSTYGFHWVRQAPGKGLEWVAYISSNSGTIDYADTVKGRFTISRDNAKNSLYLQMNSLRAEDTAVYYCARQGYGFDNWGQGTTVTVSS VL: DIQLTQSPSSLSASVGDRVTITCSASSRVSYMNWYQQKPGKSPKIWVYGISNLASGVPSRFSGSGSGTDFTFTISSLQPEDIATYYCQQRSSHPLTFGGGTKVEIKR	0.2
